protocol description: NCI Yeast Anticancer Drug Screen. Data for the rad50EPP+ strain (AID 151);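 further: 0% = growth of vehicle-treated control cultures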
condition summary: S. cerevisiae rad50 mutant strain, at 11.0 µM, stronger effect = higher value
This is part of a sample that, as a whole, favours compounds with a hit. Of some 79,000 tested, about 15% had one in any assay. Starred links: 1 amine or outer side, 2 acyl side, 3 side chain; linkers in the order of their positions; H or OH if unused. Positions of bridges follow the written chain, without caps; N, C: chain ends. Non-standard residues stand in square brackets, D forms with d. Residues, ends and D or L forms follow the SMILES beside them. Chains are numbered I, II in the order given. Actinocin(9to1) = Cc1c2oc3c(C)ccc(C(=O)[*:1])c3nc-2c(C(=O)[*:2])c(N)c1=O; aThr = C[C@H](O)[C@H](N)C(=O)O; NMeV = CN[C@H](C(=O)O)C(C)C; Sar = CNCC(=O)O
endpoint name: growth inhibition (%)
Form entry: value (%) — number only.

## Input I have this compound here, CCCCCCCCCCCCCCCCCN , and I need its recorded growth inhibition.
## Output 82

## Input Entry to check: Cc1[nH]nc(C(F)(F)F)c1N=NN(C)C
## Output 73

## Input Entry to check: [N-]=[N+]=NC1CC(n2ccc(=O)[nH]c2=O)OC1COC(c1ccccc1)(c1ccccc1)c1ccccc1 (stereo not drawn)
## Output 0

## Input Entry to check: Cc1cc(NCCCN(C)C)c2ccc3c(ccc4c(NCCCN(C)C)cc(C)nc43)c2n1
## Output 11

## Input Entry to check: CN(C)N1C(=O)SCC(c2ccccc2)(c2ccccc2)C1=O
## Output -32

## Input Entry to check: Cc1ccc2c(/C=C/c3ccc(N(C)C)cc3)ccnc2c1C
## Output -15

## Input Entry to check: Cc1c2oc3c(C)ccc(C(=O)N[C@@H]4C(=O)N[C@H](C(C)C)C(=O)N5CCC[C@H]5C(=O)N(C)CC(=O)N(C)[C@@H](C(C)C)C(=O)O[C@H]4C)c3nc-2c(C(=O)N[C@@H]2C(=O)N[C@H](C(C)C)C(=O)N3CCC[C@H]3C(=O)N(C)CC(=O)N(C)[C@@H](C(C)C)C(=O)O[C@H]2C)c(N)c1=O (I: [aThr][dV]P[Sar][NMeV] / II: [aThr][dV]P[Sar][NMeV]; ester I:1-I:C, II:1-II:C; linker I:N-II:N via Actinocin(9to1))
## Output 94

## Input Entry to check: Cc1nc2ccccc2c(=O)n1NC(=O)c1ccc(CS)cc1
## Output -3

## Input Entry to check: CC[N+]1(C)CCC(O)(/C=C/c2ccc(Cl)c(Cl)c2)C(C(=O)/C=C/c2ccc(Cl)c(Cl)c2)C1 (stereo not drawn)
## Output 99

## Input Entry to check: O=C(Cc1ccccc1F)NC1=C(Cl)C(=O)c2ccccc2C1=O
## Output 51

## Input Entry to check: O=c1[nH]cc(F)c(=O)[nH]1
## Output 73

## Input Entry to check: O=C1C=CC(=O)N1c1ccc(Br)cc1Cl
## Output 100

## Input Entry to check: CC(O)CN1C(=O)c2cccc3cc([N+](=O)[O-])cc(c23)C1=O (stereo not drawn)
## Output 18

## Input Entry to check: Cc1ccnc(NS(=O)(=O)c2ccc(Nc3c4ccccc4nc4ccccc34)cc2)n1
## Output 64

## Input Entry to check: CN(C)c1ccc(/C=C/c2ccnc3ccc4ccccc4c23)cc1
## Output 15

## Input Entry to check: Cc1nc2ccc(Br)cc2c(=O)n1-c1ccc(NC2OCC(O)C(O)C2O)cc1 (stereo not drawn)
## Output -1

## Input Entry to check: c1cc2ccc3cc4ncccc4c4ccc(c1)c2c34
## Output 73

## Input Entry to check: CCOC(=O)C1=C(C)NC(C)=C(C(=O)OCC)C1c1cccc([N+](=O)[O-])c1
## Output -91
